Ref: ChEMBL document CHEMBL5518219

Test Details: Oral bioavailability in rat at 1 mg/kg
Format: ADME, organism-based
Run Conditions: in vivo
Readout Name: bioavailability (%)
Answers are plain numbers, in %.

q: Which value of bioavailability has been reported for Cn1cc2cc(-c3cc4[nH]nc(C5CC5)c4n(-c4ccc(OC(F)F)cc4)c3=O)ccc2n1 in the records?
a: 100

====

Test Details: Solubility in FeSSIF at pH 5
Assay type: ADME
Readout Name: solubility (µM)
Answers are plain numbers, in µM.

q: Which value of solubility has been reported for Cn1cc2cc(-c3cc4[nH]nc(C5CC5)c4n(-c4ccc(OC(F)F)cc4)c3=O)ccc2n1 in the records?
a: 11.2
